Data provenance: the supplement of paper PMC8882468

Attribute: CTG-3D luminescence at 96 h
Tested on: HCI-016 (organoid from a triple-negative breast cancer xenograft)
test-protocol: CTG-3D luminescence at 96 h relative to day-0 seeding control (ratio to day 0); higher = more growth / less cytotoxicity; PDxO 3D drug screen, 96 h, CTG-3D normalised to day-0 seeding control.
run-conditions: 1 µM; days in culture: 153
reported-endpoint: CTG-3D luminescence at 96 h

| smiles-structure | reported-endpoint | measurement |
| --- | --- | --- |
| Cc1cc(Nc2ncnc3ccc(NC4=NC(C)(C)CO4)cc23)ccc1Oc1ccn2ncnc2c1 | CTG-3D luminescence at 96 h | 2.19 |
| CC(C)n1nc(-c2ccc3oc(N)nc3c2)c2c(N)ncnc21 | CTG-3D luminescence at 96 h | 0.922 |
| CC1(C)CCC(c2ccc(Cl)cc2)=C(CN2CCN(c3ccc(C(=O)NS(=O)(=O)c4ccc(N[C@H](CCN5CCOCC5)CSc5ccccc5)c(S(=O)(=O)C(F)(F)F)c4)cc3)CC2)C1 | CTG-3D luminescence at 96 h | 1.76 |
| Cc1cc(Nc2ncc(Cl)c(Nc3ccccc3S(=O)(=O)C(C)C)n2)c(OC(C)C)cc1C1CCNCC1 | CTG-3D luminescence at 96 h | 2.1 |
| C[C@H](NC(=O)CCC(F)(F)F)C(=O)N[C@@H]1C(=O)N(CCO)c2ncccc2-c2ccccc21 | CTG-3D luminescence at 96 h | 2.21 |
| C[C@@H]1COCCN1c1cc(C2([S@](C)(=N)=O)CC2)nc(-c2cc[nH]c3nccc2-3)n1 | CTG-3D luminescence at 96 h | 1.72 |
| NC1(C(=O)N[C@@H](CCO)c2ccc(Cl)cc2)CCN(c2nc[nH]c3nccc2-3)CC1 | CTG-3D luminescence at 96 h | 2.43 |
| O=C(c1ccc(F)c(F)c1Nc1ccc(I)cc1F)N1CC(O)([C@@H]2CCCCN2)C1 | CTG-3D luminescence at 96 h | 1.56 |
| CNC(=O)c1cccc(-c2ccc3c(N4CCOC[C@@H]4C)nc(N4CCOC[C@@H]4C)nc3n2)c1 | CTG-3D luminescence at 96 h | 1.01 |
| CCN(c1cc(C#CCN2CCOCC2)cc(C(=O)NCc2c(C)cc(C)[nH]c2=O)c1C)[C@H]1CC[C@H](N(C)CCOC)CC1 | CTG-3D luminescence at 96 h | 2.25 |

---

Attribute: CTG-3D luminescence at 96 h
Tested on: HCI-002 (organoid from a triple-negative breast cancer xenograft)
test-protocol: CTG-3D luminescence at 96 h relative to day-0 seeding control (ratio to day 0); higher = more growth / less cytotoxicity; PDxO 3D drug screen, 96 h, CTG-3D normalised to day-0 seeding control.
run-conditions: 1 µM; days in culture: 227

| smiles-structure | measurement-target | CTG-3D luminescence at 96 h |
| --- | --- | --- |
| C=CC(=O)N1CCC[C@@H](n2nc(-c3ccc(Oc4ccccc4)cc3)c3c(N)ncnc32)C1 | HCI-002 | 2.61 |
| NC(=O)Nc1cc(-c2cccc(F)c2)sc1C(=O)N[C@H]1CCCNC1 | HCI-002 | 2.21 |
| O=C(c1ccc(F)c(F)c1Nc1ccc(I)cc1F)N1CC(O)([C@@H]2CCCCN2)C1 | HCI-002 | 2.78 |
| COc1cc2c(Oc3ccc4[nH]c(C)cc4c3F)ncnc2cc1OCCCN1CCCC1 | HCI-002 | 4.99 |
| Cc1cc(Nc2ncnc3ccc(NC4=NC(C)(C)CO4)cc23)ccc1Oc1ccn2ncnc2c1 | HCI-002 | 4.14 |
| CNC(=O)c1cccc(-c2ccc3c(N4CCOC[C@@H]4C)nc(N4CCOC[C@@H]4C)nc3n2)c1 | HCI-002 | 1.39 |
| C=CCn1c(=O)c2cnc(Nc3ccc(N4CCN(C)CC4)cc3)nc2n1-c1cccc(C(C)(C)O)n1 | HCI-002 | 2.13 |
| C[C@H](NC(=O)CCC(F)(F)F)C(=O)N[C@@H]1C(=O)N(CCO)c2ncccc2-c2ccccc21 | HCI-002 | 4.74 |
| CC(C)(C(=O)NCC(F)(F)C(F)(F)F)C(=O)N[C@@H]1C(=O)Nc2ccccc2-c2ccccc21 | HCI-002 | 4.95 |
| O=C(/C=C/c1cccnc1)NCCCCC1CCN(C(=O)c2ccccc2)CC1 | HCI-002 | 0.0406 |

---

System: HCI-012 (organoid from a breast cancer xenograft)
test-protocol: CTG-3D luminescence at 96 h relative to day-0 seeding control (ratio to day 0); higher = more growth / less cytotoxicity; PDxO 3D drug screen, 96 h, CTG-3D normalised to day-0 seeding control.
run-conditions: 625 fM; days in culture: 162
Parameter threshold = 3. Response is t when CTG-3D luminescence at 96 h meets or exceeds it, else f.

| smiles-structure | group |
| --- | --- |
| C/C=C1\NC(=O)[C@H]2CSSCC/C=C/[C@H](CC(=O)N[C@H](C(C)C)C(=O)N2)OC(=O)[C@H](C(C)C)NC1=O | f |
| CCN(c1cc(C#CCN2CCOCC2)cc(C(=O)NCc2c(C)cc(C)[nH]c2=O)c1C)[C@H]1CC[C@H](N(C)CCOC)CC1 | f |
| CC(C)(C(=O)NCC(F)(F)C(F)(F)F)C(=O)N[C@@H]1C(=O)Nc2ccccc2-c2ccccc21 | t |
| NC1(C(=O)N[C@@H](CCO)c2ccc(Cl)cc2)CCN(c2nc[nH]c3nccc2-3)CC1 | t |

---

Tested on: HCI-025 (organoid from a breast cancer xenograft)
test-protocol: CTG-3D luminescence at 96 h relative to day-0 seeding control (ratio to day 0); higher = more growth / less cytotoxicity; PDxO 3D drug screen, 96 h, CTG-3D normalised to day-0 seeding control.
run-conditions: 0.00025 µM; days in culture: 209
Attribute: CTG-3D luminescence at 96 h
reported-endpoint: CTG-3D luminescence at 96 h

| smiles-structure | reported-endpoint | measurement |
| --- | --- | --- |
| C=CC(=O)N1CCC[C@@H](n2nc(-c3ccc(Oc4ccccc4)cc3)c3c(N)ncnc32)C1 | CTG-3D luminescence at 96 h | 2.13 |
| CNC(=O)c1cccc(-c2ccc3c(N4CCOC[C@@H]4C)nc(N4CCOC[C@@H]4C)nc3n2)c1 | CTG-3D luminescence at 96 h | 2.05 |
| CC[C@H](NC(=O)[C@H](C)NC)C(=O)N1C[C@@H](O)C[C@H]1Cc1c(-c2[nH]c3cc(F)ccc3c2C[C@@H]2C[C@H](O)CN2C(=O)[C@H](CC)NC(=O)[C@H](C)NC)[nH]c2cc(F)ccc12 | CTG-3D luminescence at 96 h | 1.95 |
| NC1(C(=O)N[C@@H](CCO)c2ccc(Cl)cc2)CCN(c2nc[nH]c3nccc2-3)CC1 | CTG-3D luminescence at 96 h | 1.99 |
| CC(C)(C(=O)NCC(F)(F)C(F)(F)F)C(=O)N[C@@H]1C(=O)Nc2ccccc2-c2ccccc21 | CTG-3D luminescence at 96 h | 1.73 |
| CC1(C)CCC(c2ccc(Cl)cc2)=C(CN2CCN(c3ccc(C(=O)NS(=O)(=O)c4ccc(N[C@H](CCN5CCOCC5)CSc5ccccc5)c(S(=O)(=O)C(F)(F)F)c4)cc3)CC2)C1 | CTG-3D luminescence at 96 h | 2.53 |

---

Attribute: CTG-3D luminescence at 96 h
Test system: HCI-024 (organoid from a breast cancer xenograft)
test-protocol: CTG-3D luminescence at 96 h relative to day-0 seeding control (ratio to day 0); higher = more growth / less cytotoxicity; PDxO 3D drug screen, 96 h, CTG-3D normalised to day-0 seeding control.
run-conditions: 100 µM; days in culture: 122

| smiles-structure | CTG-3D luminescence at 96 h |
| --- | --- |
| COc1cc2c(Oc3ccc4[nH]c(C)cc4c3F)ncnc2cc1OCCCN1CCCC1 | -0.000119 |
| CC1(C)CCC(c2ccc(Cl)cc2)=C(CN2CCN(c3ccc(C(=O)NS(=O)(=O)c4ccc(N[C@H](CCN5CCOCC5)CSc5ccccc5)c(S(=O)(=O)C(F)(F)F)c4)cc3)CC2)C1 | 0.266 |
| CCc1c2c(nc3ccc(O)cc13)-c1cc3c(c(=O)n1C2)COC(=O)[C@]3(O)CC | 0.13 |
| Cc1cc(Nc2ncc(Cl)c(Nc3ccccc3S(=O)(=O)C(C)C)n2)c(OC(C)C)cc1C1CCNCC1 | -0.00377 |
| C[C@@H]1COCCN1c1cc(C2([S@](C)(=N)=O)CC2)nc(-c2cc[nH]c3nccc2-3)n1 | 0.54 |
| C/C=C1\NC(=O)[C@H]2CSSCC/C=C/[C@H](CC(=O)N[C@H](C(C)C)C(=O)N2)OC(=O)[C@H](C(C)C)NC1=O | -0.00823 |
| Cc1cc(Nc2ncnc3ccc(NC4=NC(C)(C)CO4)cc23)ccc1Oc1ccn2ncnc2c1 | 0.0421 |
| CNC(=O)c1cccc(-c2ccc3c(N4CCOC[C@@H]4C)nc(N4CCOC[C@@H]4C)nc3n2)c1 | 0.813 |
| CCN(c1cc(C#CCN2CCOCC2)cc(C(=O)NCc2c(C)cc(C)[nH]c2=O)c1C)[C@H]1CC[C@H](N(C)CCOC)CC1 | 1.5 |
| C=CC(=O)N1CCC[C@@H](n2nc(-c3ccc(Oc4ccccc4)cc3)c3c(N)ncnc32)C1 | -0.00165 |
| O=C(/C=C/c1cccnc1)NCCCCC1CCN(C(=O)c2ccccc2)CC1 | 0.172 |
| O=C(O)C1(C(=O)O)CCC1.[NH2-].[NH2-].[Pt+2] | 0.189 |
